Tested on: HOP-62 NSCLC
Test: NCI tumour cell line growth inhibition, 48 h
Reported values of TGI for individual entries

# Smiles code, Target under test, TGI
data = [
    ("COC(=O)c1s/c(=N\\C(=S)N(C)C)n(-c2ccc(Cl)cc2)c1C(=O)OC", "HOP-62 NSCLC", "> 100 µM"),
]

Read the next record carefully.
State its TGI for this molecule: COc1ccc(C2=C3SC=c4ccccc4=C3ON=C2c2ccccc2)cc1
> 100 µM

====

Reported values of TGI for individual entries
Test system: SF-268 CNS
Assay: NCI tumour cell line growth inhibition, 48 h

# Compound, TGI
rows = [
    ("O=C(O)CCSC(CC1(c2ccc(Cl)cc2)NC(=O)CCS1)c1ccccc1 (centres undefined)", "38.4 µM"),
    ("Oc1cn(-c2ccc(Cl)cc2)nc1-c1n[nH]c(=S)n1-c1ccccc1", "64.2 µM"),
    ("C#Cc1nc(Nc2cc(C)[nH]n2)c2ccccc2n1", "1.11 µM"),
    ("CS(=O)(=O)Nc1cc(-c2ccc3ncnc(Nc4c(Cl)ccc5c4OCO5)c3c2)cnc1Cl", "1.48 µM"),
    ("COc1ccc(C2=C3SC=c4ccccc4=C3ON=C2c2ccccc2)cc1", "> 100 µM"),
]

State its TGI for this compound: CC(C)(C)OC/C=C(/CO)[C@@H]1C=C[C@H](O)C1
> 100 µM

State its TGI for this compound: BrCc1cccc(C[P+](c2ccccc2)(c2ccccc2)c2ccccc2)c1
> 100 µM

State its TGI for this compound: N=C1C(=N)c2ccccc2-c2ccccc21.N=C1C(=N)c2ccccc2-c2ccccc21.N=C1C(=N)c2ccccc2-c2ccccc21.[Cl-].[Ru+2]
3.28 µM

State its TGI for this compound: Cc1nc2cc(Nc3nc(Nc4ccc(F)cc4)nc(-c4cccs4)n3)ccc2n1Cc1ccccc1
> 100 µM

State its TGI for this compound: Cc1ccc(Cl)c2c(=O)c3ccc(N)cc3sc12
> 100 µM

State its TGI for this compound: CC(C)=CCc1cc2c(cc1O)OC[C@H]1c3cc4c(cc3O[C@@H]21)OCO4
> 100 µM

====

Test system: TK-10 renal
Test: NCI tumour cell line growth inhibition, 48 h
Reported values of TGI for individual entries

Example entries and their recorded answers appear below.
# Compound, TGI
data = [
    ("CCOc1nnnc2nc[nH]c12", "> 100 µM"),
    ("CC1(Br)Cc2ccccc2C1=O (configuration not stated)", "29.8 µM"),
    ("COC(=O)C1=CN(CC2=CC(=O)C(C)=CC2=O)C=C(C(=O)OC)C1c1cccc(OC)c1", "25.9 µM"),
    ("Nc1c(C(=O)c2ccccc2)cnn1-c1ccc(F)cc1", "> 25 µM"),
    ("CN(C)/N=C1/CCC(C(F)(F)F)(C(F)(F)F)O1", "> 100 µM"),
]

State its TGI for this compound: CN(C)CCCn1cnc2cc(Cl)c(Cl)cc21
> 100 µM

====

Tested on: HT29 colon
Test: NCI tumour cell line growth inhibition, 48 h; in the data active means GI50 below about 0.43 µM; inactive means the rest
Field 'call' accepts active, inactive

// known answers, use as guide
# Compound, Target under test, Label value
data = [
    ("O=C(Nc1ccc(Cl)c(C(F)(F)F)c1)c1ccc(NC2=C(Cl)C(=O)N(Cc3ccccc3)C2=O)cc1", "HT29 colon", "inactive"),
    ("C=CCc1ccc(O)c(-c2ccc(O)c(CC=C)c2)c1", "HT29 colon", "inactive"),
    ("C[C@@]12CCC[C@@](C)(C(=O)O)C1CC[C@]13CC(=O)[C@](CO)(C1)[C@@H](O)CC32 (stereo not given in full)", "HT29 colon", "inactive"),
    ("Cn1c(Nc2ccc(C(F)(F)F)cc2)nc2cc(Oc3ccnc(-c4ncc(C(F)(F)F)[nH]4)c3)ccc21", "HT29 colon", "active"),
]

Hi team, can someone confirm the assay call for CN(C)CCC(=O)C(=Cc1ccc(O)cc1)C(=O)CCN(C)C ?
inactive
